Recorded protein stability index values for a group of variants are listed next.
B1: TRIM55 (parent)
chain: ICPICLEMFTKPVVILPCQHNLCR

- Variants of: B1
- measurement_notes: protein stability index of a GFP-peptide fusion (GPS, HEK-293T) (PSI 1-6); higher = more stable;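 further: lentivirally expressed fusions sorted by FACS into six bins by GFP to DsRed ratio, PSI derived from sequencing read proportions per bin multiplied by bin number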
- cond: c terminus: a fixed tail appended

variant_descriptor: E7T
protein stability index: 1.85

variant_descriptor: L16H
protein stability index: 2.86

variant_descriptor: L16R
protein stability index: 2.24

variant_descriptor: V13A
protein stability index: 2.37

variant_descriptor: F9A
protein stability index: 2.64

variant_descriptor: L16P
protein stability index: 3.02

variant_descriptor: P17M
protein stability index: 1.7

variant_descriptor: P3N
protein stability index: 2.13

variant_descriptor: Q19T
protein stability index: 1.98

variant_descriptor: I1C
protein stability index: 2.36

variant_descriptor: L22G
protein stability index: 2.44

variant_descriptor: I15R
protein stability index: 2.18

variant_descriptor: P3C
protein stability index: 1.63

variant_descriptor: P17E
protein stability index: 2.62

variant_descriptor: H20L
protein stability index: 1.91

variant_descriptor: I1R
protein stability index: 2.75

variant_descriptor: E7C
protein stability index: 1.92

variant_descriptor: H20V
protein stability index: 1.34

variant_descriptor: C2N
protein stability index: 1.78

variant_descriptor: I1S
protein stability index: 2.72

variant_descriptor: I1W
protein stability index: 2.59

variant_descriptor: Q19D
protein stability index: 2.54

variant_descriptor: C5P
protein stability index: 2.07

variant_descriptor: I15Y
protein stability index: 2.02

variant_descriptor: E7F
protein stability index: 2.24

variant_descriptor: P17H
protein stability index: 2.35

variant_descriptor: V13F
protein stability index: 2.31

variant_descriptor: V14R
protein stability index: 2.47

variant_descriptor: L16Y
protein stability index: 2.39

variant_descriptor: N21L
protein stability index: 2.01

variant_descriptor: I1H
protein stability index: 2.62

variant_descriptor: R24Q
protein stability index: 2.57

variant_descriptor: C23D
protein stability index: 1.97

variant_descriptor: H20Y
protein stability index: 1.52

variant_descriptor: T10K
protein stability index: 2.34

variant_descriptor: R24M
protein stability index: 2.15

variant_descriptor: P17V
protein stability index: 2.33

variant_descriptor: H20P
protein stability index: 2.23

variant_descriptor: F9D
protein stability index: 3.1

variant_descriptor: C23W
protein stability index: 2.05

variant_descriptor: C5L
protein stability index: 1.72

variant_descriptor: P17L
protein stability index: 2.44

variant_descriptor: C5V
protein stability index: 2.14

variant_descriptor: V14K
protein stability index: 2.33

variant_descriptor: P12M
protein stability index: 2.25

variant_descriptor: R24N
protein stability index: 2.95

variant_descriptor: P3L
protein stability index: 2.17

variant_descriptor: V13M
protein stability index: 2.33

variant_descriptor: F9C
protein stability index: 2.81

variant_descriptor: P12E
protein stability index: 2.55

variant_descriptor: Q19I
protein stability index: 2.68

variant_descriptor: T10Y
protein stability index: 2.06

variant_descriptor: T10W
protein stability index: 2.27

variant_descriptor: I15D
protein stability index: 2.81

variant_descriptor: V13W
protein stability index: 1.89

variant_descriptor: L6D
protein stability index: 2.79

variant_descriptor: Q19R
protein stability index: 2.25

variant_descriptor: I4V
protein stability index: 2.51

variant_descriptor: C23M
protein stability index: 2.43

variant_descriptor: P3A
protein stability index: 1.27

variant_descriptor: F9S
protein stability index: 2.75

variant_descriptor: C5Q
protein stability index: 1.18

variant_descriptor: P3D
protein stability index: 2.53

variant_descriptor: E7D
protein stability index: 2.35

variant_descriptor: I1P
protein stability index: 2.19

variant_descriptor: C5E
protein stability index: 2.28

variant_descriptor: L16Q
protein stability index: 2.62

variant_descriptor: I15G
protein stability index: 2.53

variant_descriptor: L6G
protein stability index: 2.25

variant_descriptor: P12W
protein stability index: 1.97

variant_descriptor: E7M
protein stability index: 2.09

variant_descriptor: N21G
protein stability index: 2.71

variant_descriptor: I15K
protein stability index: 2.09

variant_descriptor: I4L
protein stability index: 1.78

variant_descriptor: N21R
protein stability index: 2.31

variant_descriptor: C23S
protein stability index: 1.93

variant_descriptor: I1G
protein stability index: 2.46

variant_descriptor: C2P
protein stability index: 1.93

variant_descriptor: P17G
protein stability index: 1.83

variant_descriptor: N21M
protein stability index: 2.29

variant_descriptor: V14Q
protein stability index: 2.59

variant_descriptor: C5F
protein stability index: 1.57

variant_descriptor: K11Q
protein stability index: 2.6

variant_descriptor: P3R
protein stability index: 1.27

variant_descriptor: C23V
protein stability index: 2.46

variant_descriptor: M8H
protein stability index: 2.76

variant_descriptor: L6V
protein stability index: 1.95

variant_descriptor: L6Y
protein stability index: 2.34

variant_descriptor: R24Y
protein stability index: 2.13

variant_descriptor: K11M
protein stability index: 1.94

variant_descriptor: P12F
protein stability index: 1.55

Value source: the supplement of paper PMC10567573
